System: NCI-H522 lung
Method summary: NCI tumour cell line growth inhibition, 48 h; in the data active means GI50 below about 0.43 µM; inactive means the rest
Possible outcomes: true (active), false (inactive)

Molecule | Label
CC1=CC(C)=N/C(=N/S(=O)(=O)c2cc(C)c(Cl)cc2SCc2ccccc2)NN1 | false
COc1ccc2c3ccnc(C(F)(F)F)c3n(CCCCN)c2c1 | false
C=CCc1c(O)c(C(=O)/C=C/c2ccc(Cl)cc2)c(OC)c2ccoc12 | false
Cc1cc(I)cc(CN(C)CCCN2CCC(C)CC2)c1O | false
O=C(Nc1ccc(Cl)c(Cl)c1)c1ccc(NC2=C(Cl)C(=O)N(Cc3ccccc3)C2=O)cc1 | false
CN(C(=O)C(C)(C)C)c1ccccc1I(=O)=O | false
Nc1nc(-c2ccc3c(c2)/C(=C\c2cc(Br)c(O)c(Br)c2)C(=O)N3)cs1 | false
CC1Cc2c(Cl)ncnc2N(C)c2ccccc21 (centres undefined) | false
Oc1c(C(c2ccc(F)cc2)N2CCCCC2)ccc2cncnc12 (centres undefined) | true
Cc1ccsc1C(NC(=O)c1ccccc1)c1cc(Cl)c2cccnc2c1O (centres undefined) | true
COc1cc(C2c3cc4c(cc3[C@@H](NC3CCN(Cc5ccccc5)CC3)C3COC(=O)[C@H]23)OCO4)cc(OC)c1O (some centres undefined) | true
O=C(Nc1cccc([N+](=O)[O-])c1)c1cccc(C(=O)Nc2cccc([N+](=O)[O-])c2)c1 | false
CCOC(=O)C1=C(Nc2ccc(OC)cc2)C(N)=NC1=N | false
Nc1nc(N)c2c(ccc3c2ccn3Cc2cccc([N+](=O)[O-])c2)n1 | true

----------
Tested on: ACHN renal
Method summary: NCI tumour cell line growth inhibition, 48 h
# TGI per record follows

Molecule | TGI
C=CC1=C(C)C(/C=c2\[nH]/c(=C/c3[nH]c(CC4NC(=O)C(C)/C4=C\C)c(C)c3CCC(=O)O)c(CC(=O)O)c2C)=NC1=O (stereo unspecified) | > 100 µM
CC(C)N1CC2CC(CN(C(=O)c3ccc(Cl)cc3)C2)C1 | > 100 µM
OC(CCN1CCN(CCOC(c2ccccc2)c2ccccc2)CC1)c1ccccc1 (stereo unspecified) | > 100 µM
CN1CCN(Cc2ccc(NC(=O)c3cncc(C#Cc4ccc(N)nc4)c3)cc2C(F)(F)F)CC1 | 4.4 µM
N=C1C=CC(=C(c2ccc(N)cc2)c2ccc(N)cc2)C=C1 | 31.2 µM
O=C1CCC2(O)c3ccccc3C2Cc2ccccc21 (stereo unspecified) | > 100 µM
COC(=O)/C=C1\C(CO[Si](C)(C)C(C)(C)C)OC(n2cc(C)c(=O)n(C)c2=O)C1O[Si](C)(C)C(C)(C)C (stereo unspecified) | > 100 µM
Clc1nc2nc(N3CCNCC3)nc(N3CCCC3)c2[nH]1 | 37.7 µM
Cc1cc(C)[n+]2c(c1)C=CC2 | > 100 µM
CCN1CCN(c2ccc(NC(=O)Nc3nc4ccc(-c5ccccc5OC)cc4s3)cc2)CC1 | 3.11 µM
C/C(=N\N=C(N)N)C(CN1CCOCC1)C(c1ccccc1)c1c(O)c2ccccc2oc1=O (stereo unspecified) | > 100 µM
Nc1nc2cc(Cl)ccc2n1N | > 100 µM
COC(=O)C1=C(C)NC(=S)NC1c1ccc(N(CCCl)CCCl)cc1Cl (stereo unspecified) | > 75.9 µM
[N-]=[N+]=Nc1cc(=O)[nH]c2ccccc12 | > 100 µM
CCSC12OC3(CCCCCN3C1=O)C1C(=O)N(c3ccccc3)C(=O)C12 (stereo unspecified) | > 100 µM
Cc1[nH]nc(C(F)(F)F)c1Cc1sc2c(c1C(=O)N1C[C@](C)(O)CO1)c(=O)n(C)c(=O)n2C(C)C | > 100 µM
COc1ccccc1-c1csc(CCC(N)C(=O)O)n1 (stereo unspecified) | > 100 µM
COc1cc2[nH]c3c(c2cc1OC)CCN[C@@]31CC[C@@]2(CC3c4c(cc(OC)c(O)c42)CCN3C)C[C@@H]1OC (stereo partly specified) | > 100 µM
COc1c(C(N)=O)cc(-c2ccc(Cl)cc2)cc1-c1ccc(S(N)(=O)=O)cc1 | > 25 µM
COc1cc2nc(-c3cccs3)nc(Nc3ccccc3C(=O)NN)c2cc1OC | > 100 µM
CC1(C)CC(=O)c2c(N)n[nH]c2C1 | > 100 µM
COc1cc(/C=C2\[C@@H]3NC(Cc4c(OC)c(C)c(OC)c(OC)c43)C(=O)N2Cc2ccccc2)c(OC)c(C)c1OC | > 100 µM
CCC(=O)NC1=C(Cl)C(=O)C(NC(=O)CC)=C(Cl)C1=O | 10.9 µM
Oc1ccc(-c2nc3cc(C(F)(F)F)ccc3s2)cc1 | 27.6 µM
COP(=O)(CP(=O)(OC)OCCC(C)CCC=C(C)C)OC (stereo unspecified) | > 100 µM
COCC(C#N)NC1CC(OC2CC(O)(C(=O)CO)Cc3c(O)c4c(c(O)c32)C(=O)c2c(OC)cccc2C4=O)OC(C)C1O (stereo unspecified) | 5.46 µM
Clc1ccc(C2SCc3nc4ccccc4n32)cc1 (stereo unspecified) | > 100 µM
COc1cc(OC)c(/C=C/C(=O)c2c(OC)cc(OC)cc2OC)c(OC)c1 | > 100 µM
CCOC(=O)N1CCC(N=C2CSc3nnc(-c4cc(C(F)(F)F)cc(C(F)(F)F)c4)n3N2)CC1 | 5.99 µM
CC(C)[C@@H](C(=O)O[C@@H]1/C=C/C(=O)O[C@@H](C)CCC/C=C/[C@@H]2C[C@H](O)C[C@H]21)N(C)C | > 100 µM
O=C1C(c2ccccc2)=C(c2ccccc2)C1(Cl)Cl | 7.09 µM
CCOc1ccccc1N=NC1C(=O)N(C(=O)CC(=O)Nc2ccccc2C)N=C1C (stereo unspecified) | > 100 µM
CCOC(=O)Cc1[nH]c(C(=O)c2ccccc2)cc1C(=O)c1ccccc1 | > 10 µM
CC(C)OC1=C(CC2(C)OCCO2)C(=O)C12OCCO2 | > 100 µM
CCn1c(CCCc2nc3c([nH]2)c(=O)n(C)c(=O)n3C)nc2c1c(=O)n(C)c(=O)n2C | > 100 µM
CC(C)(C)NCC(O)c1ccccc1Cl (stereo unspecified) | > 100 µM

----------
# GI50 per record follows
System: NCI-H23 lung
Method summary: NCI tumour cell line growth inhibition, 48 h

Compound | GI50
C[C@@H]1CC[C@@H]2[C@@H]1[C@H](OC(=O)/C=C/C1CCCCC1)[C@]1(C3CCCCC3)C[C@@H](OC(=O)CO)[C@@]2(C)O1 | 16600 nM
NS(=O)(=O)c1ccc(-n2nc3c(c2-c2cccs2)Cc2ccccc2-3)cc1 | 11900 nM
COc1cccc(N2CC(O)=C(c3nc4ccccc4s3)C2=N)c1 | 652 nM
CCN1CCN(c2ccc(NC(=O)Nc3nc4ccc(-c5ccccc5OC)cc4s3)cc2)CC1 | 1670 nM
c1ccc2c(N=NSc3ncnc4nc[nH]c34)c3ccccc3nc2c1 | 1700 nM
O=C1C=CC2C3C(=O)N(c4ccccc4)C(=O)C3C1N2Cc1ccccc1 (centres undefined) | 5370 nM
CCN(CC)CCOc1nc2ccccc2c2c1-c1ccc(OC)cc1C2=O | 1270 nM
CCC[CH2][Sn]1([CH2]CCC)[O]C(=O)c2cccc([N+](=O)[O-])c2C(=O)[O]1 | 301 nM
COc1c(C(N)=O)cc(-c2ccc(Cl)cc2)cc1-c1ccc(S(N)(=O)=O)cc1 | > 18300 nM

----------
System: HL-60(TB) leukemia
Method summary: NCI tumour cell line growth inhibition, 48 h
Measurement kind: TGI

Compound | Measurement kind | Recorded result
CCCCCCCCCCCC(=O)N(CCCCCCCCC)CC(O)C(O)C(OC1OC(CO)C(O)C(O)C1O)C(O)CO (stereo not given) | TGI | 45.8 µM
COc1nn(C)cc1Nc1nccc(-c2c[nH]c3c(NC(=O)[C@@H](C)N4CCN(C)CC4)cccc23)n1 | TGI | > 100 µM
COc1cc2c(cc1OCC(=O)Nc1ccc(Cl)cc1C(=O)c1ccccc1Cl)N=CC1CCCN1C2=O (stereo not given) | TGI | 56.2 µM
Clc1nc2nc(N3CCNCC3)nc(N3CCCC3)c2[nH]1 | TGI | 42.8 µM
Cc1cc(N(CCC#N)S(=O)(=O)c2ccccc2)ccc1C=Nc1ccc(C(=O)O)cc1 | TGI | > 21.3 µM
NC(=Nc1ccccc1)N/N=C/c1c[nH]c2ccccc12 | TGI | 4.54 µM
Cc1ccc(/C=c2\c(=O)[nH]c3nc4ccccc4c(=O)n23)cc1 | TGI | > 100 µM
CCOc1ccccc1N=NC1C(=O)N(C(=O)CC(=O)Nc2ccccc2C)N=C1C (stereo not given) | TGI | > 100 µM
CC(C)N1CC2CC(CN(C(=O)c3ccc(Cl)cc3)C2)C1 | TGI | > 100 µM
COc1ccc(C2N(c3ccc(C)c(N=C=O)c3)C(=O)N3C(c4ccc(OC)cc4)N(c4ccc(C)c(N=C=O)c4)C(=O)N23)cc1 (stereo not given) | TGI | > 100 µM
O=c1oc2ccccc2c(O)c1C(c1ccc(OCc2ccccc2)cc1)c1c(O)c2ccccc2oc1=O | TGI | 65.9 µM
O/N=C1\C/C(=N\O)c2c(Br)sc(Br)c21 | TGI | > 100 µM
O=C(CC(=O)N1N=C(c2ccccc2)C(N=Nc2ccc(S(=O)(=O)CCOS(=O)(=O)O)cc2)C1=O)Nc1ccc(Cl)cc1 (stereo not given) | TGI | > 100 µM
Cc1c(C(=O)Nc2ccc(N3C[C@@H](C)O[C@@H](C)C3)nc2)cccc1-c1ccc(OC(F)(F)F)cc1 | TGI | > 100 µM
CCCCCCCCCC1CC(=O)OC2=C1C(=O)CCC2 (stereo not given) | TGI | > 100 µM
CCC[CH2][Sn]1([CH2]CCC)[O]C(=O)c2cccc([N+](=O)[O-])c2C(=O)[O]1 | TGI | 1.35 µM
COc1ccc(/C(=N/O)c2ccccc2C2=Nc3ccccc3C(NCc3ccccc3)O2)cc1C (stereo not given) | TGI | > 100 µM
Cc1cnc2c(c1)C(=O)N(c1ccc(Oc3ccccc3)cc1)S2(=O)=O | TGI | > 100 µM
O=[N+]([O-])c1c(O)c2nonc2c2nn(-c3ccccc3)nc12 | TGI | > 100 µM
Oc1c(C(c2ccc(F)cc2)N2CCCCC2)ccc2cncnc12 (stereo not given) | TGI | 6.22 µM
